# Assay Remarks: Luminescence Cell-Based Dose Retest to Confirm Inhibitors of Cancer Stem Cells. [Related pubchem assays (depositor defined):AID2717, AID2721]
# Format: functional
# Particulars: Homo sapiens
Calls of active or inactive are those of the source.
AC50 reference

INSERT INTO results (record_smiles, assay_result) VALUES
  ('O=C(NCc1cccnc1)/C(=C/c1ccc(-c2cccc(Cl)c2)o1)S(=O)(=O)c1ccccc1', '1.73 µM (active)'),
  ('CCn1c(=O)c(C(=O)NCCc2ccccc2)c(O)c2ccccc21', '6.91 µM (active)'),
  ('FC(F)Oc1ccc(-c2csc(NNC3=NCCCCC3)n2)cc1', '1.77 µM (active)'),
  ('CCOC(=O)C(=Cc1ccc(OCc2ccc([N+](=O)[O-])cc2)c(OC)c1)C(=O)OCC', '1.79 µM (active)');

AC50 measured on `COc1cc(NC(=O)c2cc(C)on2)cc(C(=O)Nc2cccc(C(F)(F)F)c2)c1` = 11.6 µM (active)

###

# Target: Aminopeptidase N (Plasmodium falciparum FcB1/Columbia)
# Sequence (O96935 whole entry): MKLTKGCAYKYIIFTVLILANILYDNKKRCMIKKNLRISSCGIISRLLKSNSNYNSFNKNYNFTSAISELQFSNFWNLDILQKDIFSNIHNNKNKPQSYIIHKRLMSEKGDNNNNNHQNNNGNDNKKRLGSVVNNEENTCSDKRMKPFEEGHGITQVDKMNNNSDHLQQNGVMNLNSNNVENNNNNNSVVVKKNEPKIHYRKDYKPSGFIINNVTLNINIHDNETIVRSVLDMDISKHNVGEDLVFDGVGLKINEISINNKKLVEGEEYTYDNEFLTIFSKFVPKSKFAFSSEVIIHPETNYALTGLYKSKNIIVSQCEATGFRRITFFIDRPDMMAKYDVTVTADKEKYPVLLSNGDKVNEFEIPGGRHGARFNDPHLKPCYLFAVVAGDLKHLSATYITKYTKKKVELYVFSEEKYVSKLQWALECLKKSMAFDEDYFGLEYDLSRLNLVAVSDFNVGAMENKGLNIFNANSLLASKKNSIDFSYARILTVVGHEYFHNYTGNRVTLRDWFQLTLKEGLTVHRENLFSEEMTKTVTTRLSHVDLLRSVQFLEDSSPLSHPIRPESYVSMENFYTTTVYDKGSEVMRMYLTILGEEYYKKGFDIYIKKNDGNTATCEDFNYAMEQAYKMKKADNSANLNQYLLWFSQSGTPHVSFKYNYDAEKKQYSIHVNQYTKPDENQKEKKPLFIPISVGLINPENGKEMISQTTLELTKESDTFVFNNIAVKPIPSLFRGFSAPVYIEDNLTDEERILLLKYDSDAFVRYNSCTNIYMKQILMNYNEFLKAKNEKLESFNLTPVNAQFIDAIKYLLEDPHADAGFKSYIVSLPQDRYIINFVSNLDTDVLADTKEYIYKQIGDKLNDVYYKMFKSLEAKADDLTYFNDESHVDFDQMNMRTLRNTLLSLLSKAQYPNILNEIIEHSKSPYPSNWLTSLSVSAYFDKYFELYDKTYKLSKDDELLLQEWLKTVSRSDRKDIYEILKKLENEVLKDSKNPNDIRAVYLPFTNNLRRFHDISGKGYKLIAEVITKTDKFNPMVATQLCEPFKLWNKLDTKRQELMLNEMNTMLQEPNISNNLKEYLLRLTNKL
# Assay Remarks: P. falciparum M1AAP inhibitors, biochemical, fluorogenic H-Leu-NHMec substrate, 1536-well (AID 1445)
# Design: species or system Plasmodium falciparum 3D7, 3D7
The source made the active and inactive calls.
Measurement Kind: IC50

INSERT INTO assay_data (record_smiles, assay_result) VALUES
  ('Cc1cc(OCc2nnn[nH]2)c2c3c(c(=O)oc2c1)CCCC3', '68.9 µM (active)'),
  ('CN=C(S)N=Nc1c(O)[nH]c2ccccc12', '47.9 µM (active)'),
  ('Cc1ccc(C(=O)Nc2nc(=O)n(C(=O)c3ccccc3Cl)s2)cc1', '38.8 µM (active)'),
  ('C=CCn1c(=N)c(C(=O)NCCCOC)cc2c(=O)n3cccc(C)c3nc21', '47.6 µM (active)');

Okay, next one:
IC50 measured on `CCc1nc(N=C(N)N)nc2ccccc12` = 48.5 µM (active)

###

# Target: Protein skinhead-1 (Caenorhabditis elegans)
# Sequence (P34707 whole entry): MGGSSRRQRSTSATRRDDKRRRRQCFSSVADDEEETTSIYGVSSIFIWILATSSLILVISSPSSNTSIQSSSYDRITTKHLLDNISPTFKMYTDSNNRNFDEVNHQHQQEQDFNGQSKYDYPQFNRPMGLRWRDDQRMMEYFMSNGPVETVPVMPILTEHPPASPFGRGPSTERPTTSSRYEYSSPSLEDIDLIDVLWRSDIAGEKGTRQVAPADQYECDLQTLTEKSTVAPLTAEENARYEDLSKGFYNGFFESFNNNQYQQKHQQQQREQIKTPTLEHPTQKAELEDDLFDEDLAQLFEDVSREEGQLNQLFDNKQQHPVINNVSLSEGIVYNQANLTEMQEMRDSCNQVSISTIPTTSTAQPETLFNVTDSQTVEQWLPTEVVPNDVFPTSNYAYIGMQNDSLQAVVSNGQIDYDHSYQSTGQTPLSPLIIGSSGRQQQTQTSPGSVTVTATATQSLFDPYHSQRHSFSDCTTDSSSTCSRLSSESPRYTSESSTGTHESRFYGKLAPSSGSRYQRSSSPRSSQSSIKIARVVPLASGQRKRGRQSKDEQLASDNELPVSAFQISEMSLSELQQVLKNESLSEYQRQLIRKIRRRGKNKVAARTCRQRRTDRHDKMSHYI
# Type: functional
Active and inactive are the calls of the source.
Could you please pick one outcome from this set? true = active, false = inactive

INSERT INTO measurements (molecule, class_assignment) VALUES
  ('O=C(Nc1ccc(OC(=O)N2CCCC2)cc1)N1CCOCC1', 'false'),
  ('C[C@](N)(CCP(=O)(O)O)C(=O)O', 'false'),
  ('Clc1ccc(N2CCN(c3ccnc(Cl)n3)CC2)cc1', 'true'),
  ('Cc1ccc(NC2=Nc3ccccc3N3C2=Nc2c(c(C)nn2-c2ccccc2)C3c2ccc(O)c(O)c2)cc1 (stereo unspecified)', 'false'),
  ('CCOC(=O)c1ccc2c(c1)nc(SCC(=O)c1cc3ccccc3o1)n2CC', 'false');

Now, please, on to the next molecule.
Request: How was `Clc1cccc(-c2nc3ccc(Br)cn3c2Cc2ccccc2)c1` classified in this test?
Response: false

###

IC50 reference
# Target: UniProt P34949
# Sequence (P34949 whole entry): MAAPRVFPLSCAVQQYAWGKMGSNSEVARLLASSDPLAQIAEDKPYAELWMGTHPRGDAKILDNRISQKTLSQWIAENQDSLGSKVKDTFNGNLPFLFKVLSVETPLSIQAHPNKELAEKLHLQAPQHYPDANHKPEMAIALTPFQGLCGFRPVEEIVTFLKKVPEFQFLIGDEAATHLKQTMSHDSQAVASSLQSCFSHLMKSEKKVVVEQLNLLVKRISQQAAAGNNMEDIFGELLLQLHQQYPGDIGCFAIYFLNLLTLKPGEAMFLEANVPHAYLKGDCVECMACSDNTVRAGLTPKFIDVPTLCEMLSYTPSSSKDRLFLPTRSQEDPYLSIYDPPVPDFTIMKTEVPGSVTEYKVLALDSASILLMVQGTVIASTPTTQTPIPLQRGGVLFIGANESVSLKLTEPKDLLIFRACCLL
# Assay Remarks: human PMI inhibitors, high substrate, primary screen, biochemical, fluorescence intensity, high mannose 6-phosphate (AID 1220)
Active and inactive are the calls of the source.

Sample records with IC50:
INSERT INTO measurements (record_smiles, measurement_kind, assay_result) VALUES
  ('COc1ccc(Nc2nc3nc(O)cc(O)c3s2)cc1', 'IC50', '> 50 µM (not active)'),
  ('Nn1c(S)nnc1Cc1ccc(Br)cc1', 'IC50', '> 50 µM (not active)'),
  ('C/C(CC(=O)N1CCN(C=O)CC1)=N\NC(=O)c1cc2ccccc2cc1O', 'IC50', '42.5 µM (active)'),
  ('CCOC(=O)c1c2ccc(OCC(=O)N/N=C/c3ccc(C)cc3)cc2n2ccccc12', 'IC50', '13.1 µM (active)');

Okay, next one:
# value of IC50, UniProt P34949, item `Nc1ccc2ncccc2c1` = > 50 µM (not active)
